The reported measurements were obtained from ChEMBL document CHEMBL1201862.

system: HCC 2998; assay: NCI tumour cell line growth inhibition, 48 h
Calls of active or inactive are those of the source. No stated cut-off is given here; in the data, active = GI50 up to about 1.1 µM and inactive = higher.
# output must be one of active, inactive

>>> category_label("O=C(CSc1nc2ccc(I)cc2c(=O)n1Cc1ccccc1)NN1C(=O)CSC1c1ccccc1 (stereo not given)")
"inactive"
>>> category_label("C#CCn1ncc2c(SC)ncnc21")
"inactive"
>>> category_label("O=c1[nH]c2ccccc2c(=O)c2cc3ccccc3cc12")
"inactive"
>>> category_label("CCNC(=O)OCc1c(COC(=O)NCC)c(-c2ccc(Cl)c(Cl)c2)n2c1CCC2")
"inactive"
>>> category_label("CC1(C)C(=O)OC(n2cc(F)c(=O)[nH]c2=O)C1=O (stereo not given)")
"inactive"
>>> category_label("C=CC1[C@H]2COC(C)(C)O[C@@H]2CC(=O)C1(C)C (stereo not given in full)")
"inactive"
>>> category_label("O=[N+]([O-])c1cccc2nc3ccccc3c(NCCN(CCO)CCO)c12")
"active"
>>> category_label("COC1CC(CC2CCC(C)C(C(C)C(=O)O)O2)OC2(OC(C)(C3CCC(C)(C4OC(C5OC(O)(CO)C(C)CC5C)CC4C)O3)CC2C)C1C (stereo not given)")
"active"

Call for entry Cn1nc2ccccc2cc1=O : inactive

Call for entry Cc1ccc2c(O)cc(-c3ccc(F)cc3)nc2n1 : inactive

---

GI50 for assorted compounds
test system: NCI-H226; experiment: NCI tumour cell line growth inhibition, 48 h
Active and inactive are the calls of the source. Rule as the data show it: active = GI50 up to about 1.1 µM and inactive = higher.

>>> experimental_result("Cc1cc2c(c3c1c1ccccc1n3C)C(=O)C=CC2=O")
"40.3 µM (inactive)"

Give a short answer stating reported GI50 for COc1ccc(/C=C2\CCC(CN(C)C)C2=O)cc1OC (stereo not drawn) . 13.2 µM (inactive)

Give a short answer stating reported GI50 for CCOC(=O)c1c(OCC)[nH]c(=O)c(C(c2cccs2)c2c(O)c(C(=O)OCC)c(OCC)[nH]c2=O)c1O . 3.9 µM (inactive)

Give a short answer stating reported GI50 for C/C=C1/CN2CCC34C5=CC(=O)C(c6cc7c(cc6OC)N(C)C6=C(C(=O)OC)CC8(CC)CCCN9CCC67C98)=CC5=NC23CCC1C4C(=O)OC (stereo not drawn) . 20.4 µM (inactive)

Give a short answer stating reported GI50 for CNc1ccc(OC)cc1S(=O)(=O)c1ccccc1[N+](=O)[O-] . > 100 µM (inactive)

Give a short answer stating reported GI50 for CN1/C(=C/C(=O)c2ccc(Cl)cc2)Nc2ccccc21 . 13.6 µM (inactive)

Give a short answer stating reported GI50 for CC1(C)CC(=O)c2c(-c3ccc(Cl)cc3)c(C#N)c(=S)n(C3OC(CO)C(O)C(O)C3O)c2C1 (stereo not drawn) . 20.9 µM (inactive)

Give a short answer stating reported GI50 for NC1=NC(c2ccccc2)CC(c2cc(Cl)ccc2O)=N1 (stereo not drawn) . 21.2 µM (inactive)

Give a short answer stating reported GI50 for C[n+]1ccccc1/C1=c2\cc/c([nH]2)=C(\c2cccc[n+]2C)C2=N/C(=C(/c3cccc[n+]3C)C3C=CC(N3)/C(c3cccc[n+]3C)=C3/C=CC1=N3)C=C2 . > 100 µM (inactive)

Give a short answer stating reported GI50 for CN(C)c1nc(Cl)c2c(-c3ccccc3)c(-c3ccccc3)oc2n1 . > 100 µM (inactive)

Give a short answer stating reported GI50 for Cc1ccc(S(=O)(=O)N/N=C2\CC3C4CCC3C2C4)cc1 (stereo not drawn) . > 100 µM (inactive)

---

system: HOP-92; assay: NCI tumour cell line growth inhibition, 48 h
The source made the active and inactive calls. No stated cut-off is given here; in the data, active = GI50 up to about 1.1 µM and inactive = higher.
property: GI50

>>> experimental_result("COC(=O)C(=O)C(C(=O)C(=O)Nc1cccc([N+](=O)[O-])c1)c1nc2ccc(Cl)cc2nc1O (stereo unspecified)")
"> 100 µM (inactive)"
>>> experimental_result("CC(NC1=CC(=O)c2ncccc2C1=O)C(O)c1ccccc1 (stereo unspecified)")
"13.2 µM (inactive)"
>>> experimental_result("CCOC(=O)c1c(C)c(C)n2c1NC(=O)C2")
"> 91.4 µM (inactive)"

Lab note: HOP-92 assay, enter GI50 for O=[N+]([O-])c1cccc2nc3ccccc3c(NCCN(CCO)CCO)c12 here 0.00447 µM (active)

Lab note: HOP-92 assay, enter GI50 for CCOC(=O)/C=C(\C(=O)OCC)n1cc(C)c(=O)n(Cc2cn(COCCOC(C)=O)nn2)c1=O here 1.61 µM (inactive)

Lab note: HOP-92 assay, enter GI50 for COc1cc2c(cc1OC)[C@H]1CN3CCC[C@H]3C=C1c1ccc(OC)c(O)c1-2 here < 0.0001 µM (active)

Lab note: HOP-92 assay, enter GI50 for C=C1N(S(=O)(=O)c2ccc(C)cc2)C(=O)OCC12CCCC2 here > 100 µM (inactive)

Lab note: HOP-92 assay, enter GI50 for COc1cc(/C=C/c2ccc(OC(C)=O)cc2)cc(OC)c1OC here 30 µM (inactive)

---

system: SW-620; test: NCI tumour cell line growth inhibition, 48 h
Active and inactive are the calls of the source. Cut-off read from the data, not from the text of the source: active = GI50 up to about 1.1 µM and inactive = higher.
# output must be one of True = active, False = inactive

>>> category_label("CC(C)C(Sc1nc(-c2ccccc2)c(-c2ccccc2)[nH]1)c1n[nH]c(=S)n1-c1ccccc1 (configuration not stated)")
"False"
>>> category_label("CC(C)Nc1n[nH]c(=O)n1C(C)C")
"False"
>>> category_label("CC1(C)CC(=O)c2c(-c3ccc(Cl)cc3)c(C#N)c(=S)n(C3OC(CO)C(O)C(O)C3O)c2C1 (configuration not stated)")
"False"
>>> category_label("O=C(Cc1ccccc1)NN1C(=O)/C(=C\\c2cccc([N+](=O)[O-])c2)S/C1=N\\c1ccccc1")
"False"
>>> category_label("CC1(C)OC(=O)C(=Cc2ccc([N+](=O)[O-])s2)C(=O)O1")
"False"

Call for entry Cc1ccc2c(ccc3c[n+]4ccccc4c(C)c32)c1.[O-][Cl+3]([O-])([O-])[O-] : True

Call for entry Cc1nc(C(N)=S)sc1/C(CC(=O)C(=O)Nc1cccc2ccc(O)cc12)=N\NC(=O)c1ccncc1 : False

Call for entry CC1CC2OC(=O)CC2C[C@@H]1O[Si](C)(C)C(C)(C)C (some centres not stated) : False

Call for entry O=c1[nH]nc(Cc2ccccc2)n1/N=C/c1ccco1 : False

Call for entry CSc1nc(NC2OC(COC(C)=O)C(OC(C)=O)C(OC(C)=O)C2OC(C)=O)c2c(n1)OCC2=O (configuration not stated) : False

Call for entry CC1(C)N=C(/C(C#N)=[N+](/[O-])C(=O)c2ccccc2)C(C)(C)N1O : False

Call for entry CCOC(=O)c1nnsc1NN=C(C)C : False

---

tested on: OVCAR-3; test: NCI tumour cell line growth inhibition, 48 h
Activity calls are given as the source filed them. Cut-off read from the data, not from the text of the source: active = GI50 up to about 1.1 µM and inactive = higher.
# output must be one of label 1 for active, label 0 for inactive

Look over these answered cases.
>>> category_label("O=[N+]([O-])c1cccc2nc3ccccc3c(NCCN(CCO)CCO)c12")
"label 1"
>>> category_label("c1csc(-c2ccc(-c3cccc4nsnc34)s2)c1")
"label 0"
>>> category_label("Fc1ccc(C(OCCN2CCC3CCC(C2)N3C/C=C/c2cccs2)c2ccc(F)cc2)cc1 (stereo not given)")
"label 0"
>>> category_label("CCOc1ccc(/C=N/[N+](C)(C)C)cc1OCC")
"label 0"
>>> category_label("C#CCCCCC#Cc1ccccc1C(=O)OC")
"label 0"

Call for entry COc1ccc(C2=C(N)c3cc(OC)ccc3C2=O)cc1 : label 0

Call for entry NCC[Se][Se]CCN : label 0

Call for entry Cc1coc2c1C[C@@]1(C)[C@H](CCC[C@@H]1C)[C@H]2O : label 0

Call for entry O=c1[nH]nc2c3n[nH]c(=O)n3c3ccccc3n12 : label 0

Call for entry COP(=O)(CP(=O)(OC)OCCC(C)CCC=C(C)C)OC (stereo not given) : label 0

Call for entry O=[N+]([O-])c1cccc(/N=C2\c3ccccc3CN2c2cccc([N+](=O)[O-])c2)c1 : label 0

Call for entry Oc1ccccc1/C=N/c1ccc(Oc2ccc(Cl)cc2)c(Cl)c1 : label 0

Call for entry O=S(=O)(c1ccccc1)c1cccc2c1NCCC2 : label 0

---

tested on: NCI-H23; experiment: NCI tumour cell line growth inhibition, 48 h
The source made the active and inactive calls. No stated cut-off is given here; in the data, active = GI50 up to about 1.1 µM and inactive = higher.
# output must be one of active, inactive

Look over these answered cases.
>>> category_label("COP(=O)(CP(=O)(OC)OCCC(C)CCC=C(C)C)OC (stereo not drawn)")
"inactive"
>>> category_label("Cc1cc2c(cc1Cl)Sc1n[nH]c(=O)n1S2(=O)=O")
"inactive"

Call for entry OCC1OC(N2CCN(C3OC(CO)C(O)C(O)C3O)CC2)C(O)C(O)C1O (stereo not drawn) : inactive

Call for entry NC(=O)CSc1nc2ccccc2c(=O)n1N : inactive
